Could you please report measured Fluorescence quantum yield for the items listed next?
ASSAY_SUMMARY: Ultraviolet-visible and fluorescence spectroscopy of the probes
Format: physicochemical
APPLIED_CONDITIONS: Table 2; same conditions as Example 2

Lab book: Fluorescence quantum yield of CN=C1C=CC2=C(c3ccccc3O)c3ccc(NC)cc3[Si](C)(C)C2=C1.O=C(O)C(F)(F)F [Compound 17] noted as 0.22

Lab book: Fluorescence quantum yield of CN(C)c1ccc2c(c1)[Si](C)(C)C1=CC(=[N+](C)C)C=CC1=C2c1cccc(C(F)(F)F)c1 [Compound 21] noted as 0.20

Lab book: Fluorescence quantum yield of CCc1ccccc1C1=C2C=CC(=N)C=C2[Si](C)(C)c2cc(N)ccc21.O=C(O)C(F)(F)F [Compound 11] noted as 0.44
